Hello, the source for this data is paper PMC6728334, in case you need it.

tgt: Uba1 (Homo sapiens, UniProt P22314)
Construct: His; host or cells: E. coli BL21(DE3)
Sequence (P22314 1-1058): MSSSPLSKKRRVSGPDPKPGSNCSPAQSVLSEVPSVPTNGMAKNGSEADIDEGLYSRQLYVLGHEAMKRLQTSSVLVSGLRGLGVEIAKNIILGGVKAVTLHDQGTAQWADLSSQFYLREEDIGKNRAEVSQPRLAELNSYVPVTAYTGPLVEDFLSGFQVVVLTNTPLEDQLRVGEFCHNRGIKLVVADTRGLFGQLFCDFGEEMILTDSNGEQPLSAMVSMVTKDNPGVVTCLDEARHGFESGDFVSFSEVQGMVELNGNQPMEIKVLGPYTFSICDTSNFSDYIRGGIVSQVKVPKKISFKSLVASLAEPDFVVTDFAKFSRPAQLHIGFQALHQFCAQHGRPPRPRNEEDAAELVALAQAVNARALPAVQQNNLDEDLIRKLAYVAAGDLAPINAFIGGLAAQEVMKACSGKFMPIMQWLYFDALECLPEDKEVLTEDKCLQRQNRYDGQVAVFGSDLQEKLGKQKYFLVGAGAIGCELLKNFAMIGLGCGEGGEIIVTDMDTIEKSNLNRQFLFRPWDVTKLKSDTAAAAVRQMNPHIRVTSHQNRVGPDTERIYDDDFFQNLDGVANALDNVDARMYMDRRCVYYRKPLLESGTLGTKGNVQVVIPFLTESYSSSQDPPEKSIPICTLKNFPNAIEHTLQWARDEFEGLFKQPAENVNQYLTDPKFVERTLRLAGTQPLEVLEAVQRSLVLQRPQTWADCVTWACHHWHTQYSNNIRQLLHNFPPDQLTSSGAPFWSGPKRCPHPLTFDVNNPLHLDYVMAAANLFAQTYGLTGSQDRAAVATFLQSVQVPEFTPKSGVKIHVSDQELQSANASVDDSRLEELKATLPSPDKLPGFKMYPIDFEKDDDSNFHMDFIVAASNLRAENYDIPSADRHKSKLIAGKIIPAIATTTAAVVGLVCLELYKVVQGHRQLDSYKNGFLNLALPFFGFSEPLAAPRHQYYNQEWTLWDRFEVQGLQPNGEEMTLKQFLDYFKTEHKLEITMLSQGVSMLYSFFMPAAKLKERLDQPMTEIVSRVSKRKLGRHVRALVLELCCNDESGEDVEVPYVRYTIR
run.description: Uba1~ubiquitin thioester formation (Uba1, GST-ubiquitin, ATP; silver-stained gels)
Format: biochemical
recorded.conditions: up to 500 μM
recorded.endpoint: Activity in the Uba1~ubiquitin thioester formation assay (in words)

Before answering, review these 4 worked examples.
compound	assay.result
Oc1cc(O)c2c(c1)O[C@H](c1ccc(O)c(O)c1)[C@@H](O)C2 [Cat, (+)-Catechin]	inactive
O=C(O[C@@H]1Cc2c(O)cc(O)cc2O[C@@H]1c1ccc(O)c(O)c1)c1cc(O)c(O)c(O)c1 [ECG, (–)-Epicatechin-3-gallate]	active
CCCOC(=O)c1cc(O)c(O)c(O)c1 [PG, n-Propyl gallate]	inactive
CCCCCCCCCCCCOC(=O)c1cc(O)c(O)c(O)c1 [DG, n-Dodecyl gallate]	active

Please look at the following compound next.
// query Look up Activity in the Uba1~ubiquitin thioester formation assay (in words) of Oc1cc(O)c2c(c1)O[C@H](c1ccc(O)c(O)c1)[C@H](O)C2 [EC, (–)-Epicatechin] and report it.
// result inactive
